assay-name: AUC (0 to infinity) in Sprague-Dawley rat at 10 mg/kg, po administered as single dose measured upto 24 hrs by LC-MS/MS analysis
Format: ADME, organism-based
Design: dose 10 mg/kg, time < 24 hrs, route po
measurement-parameters: in vivo
property-measured: AUC (ng·h/mL)
Answers are plain numbers, in ng·h/mL.

Request the reported AUC associated with `C[C@H]1CCN1c1nc(N2CC[C@H](CCC(=O)O)C2)c2c(n1)C(F)(F)CC2` 44400

* * *

assay-name: in vitro
measurement-parameters: dog, liver microsomes
property-measured: microsomal CLint at 2 h, 1 µM

Request the reported microsomal CLint at 2 h, 1 µM associated with `C[C@H]1CCN1c1nc(N2CC[C@H](CCC(=O)O)C2)c2c(n1)C(F)(F)CC2` < 6.4 µL/min/mg

* * *

Tested on: HepG2
assay-name: cells
measurement-parameters: Homo sapiens, HepG2, 48 h
Description: Cytotoxicity against human HepG2 cells measured after 48 hrs by microscopy based analysis
property-measured: IC50

Request the reported IC50 associated with `C[C@H]1CCN1c1nc(N2CC[C@H](CCC(=O)O)C2)c2c(n1)C(F)(F)CC2` > 150 µM

* * *

assay-name: AUC (0 to t) in Beagle dog at 1 mg/kg, iv administered as single dose measured upto 24 hrs by LC-MS/MS analysis
Format: ADME, organism-based, Canis lupus familiaris
Parameters: dose 1 mg/kg, time < 24 hrs, route iv
measurement-parameters: in vivo
property-measured: AUCt (ng·h/mL)
Give bare numbers, in ng·h/mL.

Request the reported AUCt associated with `C[C@H]1CCN1c1nc(N2CC[C@H](CCC(=O)O)C2)c2c(n1)C(F)(F)CC2` 5440

* * *

assay-name: in vitro
measurement-parameters: human, primary hepatocytes
Description: Toxicity in human Primary hepatocyte incubated for 48 hrs by Celltiter-Glo assay
property-measured: IC50 at 48 h

Request the reported IC50 at 48 h associated with `C[C@H]1CCN1c1nc(N2CC[C@H](CCC(=O)O)C2)c2c(n1)C(F)(F)CC2` > 150 µM

* * *

assay-name: in vitro
measurement-parameters: dog, hepatocytes
property-measured: hepatocyte CLint at 2 h, 1 µM

Request the reported hepatocyte CLint at 2 h, 1 µM associated with `C[C@H]1CCN1c1nc(N2CC[C@H](CCC(=O)O)C2)c2c(n1)C(F)(F)CC2` < 0.96 µL/min/1e6 cells

* * *

assay-name: in vitro
measurement-parameters: dog, liver microsomes
property-measured: microsomal CLint at 2 h, 1 µM (µL/min/mg)
One number for each entry, in µL/min/mg.

Request the reported microsomal CLint at 2 h, 1 µM associated with C[C@H]1CCN1c1nc(N2CCC3(CC(C(=O)O)C3)C2)cc(C(F)(F)F)c1C#N (stereo partly specified) 5.5

* * *

assay-name: AUC (0 to t) in Sprague-Dawley rat at 10 mg/kg, iv administered as single dose measured upto 24 hrs by LC-MS/MS analysis
Assay type: ADME, organism-based
Parameters: dose 10 mg/kg, time < 24 hrs, route iv
measurement-parameters: in vivo
property-measured: AUCt (ng·h/mL)
Answers are plain numbers, in ng·h/mL.

Request the reported AUCt associated with `C[C@H]1CCN1c1nc(N2CC[C@H](CCC(=O)O)C2)c2c(n1)C(F)(F)CC2` 73000

* * *

target: Ketohexokinase (Homo sapiens, UniProt P50053)
Sequence (P50053 whole entry): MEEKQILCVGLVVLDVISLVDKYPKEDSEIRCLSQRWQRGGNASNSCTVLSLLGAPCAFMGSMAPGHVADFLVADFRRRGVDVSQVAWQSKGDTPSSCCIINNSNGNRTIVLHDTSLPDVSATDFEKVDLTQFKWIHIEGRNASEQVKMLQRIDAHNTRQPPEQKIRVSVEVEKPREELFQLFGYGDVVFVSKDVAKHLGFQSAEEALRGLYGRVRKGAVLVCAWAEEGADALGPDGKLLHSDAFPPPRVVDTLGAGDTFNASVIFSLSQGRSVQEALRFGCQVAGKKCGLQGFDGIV
property-measured: pIC50
One number for each entry, as −log10 of the molar value.

Request the reported pIC50 associated with `C[C@H]1CCN1c1nc(N2CC[C@H](CCC(=O)O)C2)c2c(n1)C(F)(F)CC2` 7.24
